Tested System: ROR1 (antigen of the KD determination and of the Octet dissociation measurement) (UniProt Q01973 30-403, limits assumed)
Sequence (Q01973 30-403 limits assumed): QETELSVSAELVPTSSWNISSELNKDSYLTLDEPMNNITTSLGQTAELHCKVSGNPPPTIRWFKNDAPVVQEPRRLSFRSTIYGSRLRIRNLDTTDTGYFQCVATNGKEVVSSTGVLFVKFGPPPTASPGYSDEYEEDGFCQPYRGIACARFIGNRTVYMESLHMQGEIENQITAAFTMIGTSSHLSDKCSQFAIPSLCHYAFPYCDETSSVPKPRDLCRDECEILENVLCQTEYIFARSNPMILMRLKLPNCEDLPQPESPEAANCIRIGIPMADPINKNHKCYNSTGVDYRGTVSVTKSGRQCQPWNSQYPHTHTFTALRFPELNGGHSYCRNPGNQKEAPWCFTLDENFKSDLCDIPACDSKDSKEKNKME
Assay: Octet, antigen form not stated
Parameter Measured: koff (s⁻¹)
Hi! Could you send only the number? It should be in s⁻¹, unit omitted.

INPUT: Quick check: koff of PR002573 (antibody, human IgG1, kappa, V domains shown, PR001364 variant: VL S93A; hIgG1; also called anti-ROR1 1015M3-D8(L: S93A) hIgG1) VH: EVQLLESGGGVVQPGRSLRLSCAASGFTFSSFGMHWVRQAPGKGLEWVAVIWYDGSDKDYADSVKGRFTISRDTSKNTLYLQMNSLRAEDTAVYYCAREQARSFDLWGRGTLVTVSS VL: DIVMTQSPSTLSASVGDRVTITCRASQTINNWLAWYQQKPGKAPKLLIYKASSLESGVPSRFSGSGSGTEFTLTISSLQPDDFATYYCQQYNAYSPMYTFGQGTKVEIKR ?
OUTPUT: 8.84e-05
